These data points were gathered from patent US6914045B2.

Hi there, I'd appreciate the recorded MIC Enterococcus faecalis (GC 3059) for every entry that follows.
Test system: Enterococcus sp.
Assay: in vitro antibacterial evaluation, MIC by broth dilution
Format: cell-based
Conditions: broth dilution, inoculum 5×10^5 CFU/mL, 18 hours at 35° C.; strain GC 3059
# number only, unit µg/mL dropped from output

Query CC(c1ccc(Cl)cc1)C1NC(=O)CNC(=O)C(CO)NC(=O)C(C(O)C2CNC(=N)N2C2OC(CO)C(O)C(O)C2O)NC(=O)C(C(O)C2CNC(=N)N2)NC(=O)C(Cc2ccc(OC3OC(CO)C(OC4OC5COC(C6CCCCC6)OC5C(O)C4O)C(O)C3O)cc2)NC1=O (centres unmarked) yields MIC Enterococcus faecalis (GC 3059) of 1

Query COc1ccc(COCC2OC(OC3C(CO)OC(Oc4ccc(CC5NC(=O)C(C(C)c6ccccc6)NC(=O)CNC(=O)C(CO)NC(=O)C(C(O)C6CNC(=N)N6C6OC(CO)C(O)C(O)C6O)NC(=O)C(C(O)C6CNC(=N)N6)NC5=O)cc4)C(O)C3O)C(O)C(O)C2O)cc1F (centres unmarked) yields MIC Enterococcus faecalis (GC 3059) of 32

###

System: Streptococcus sp.
Test: in vitro antibacterial evaluation, MIC by broth dilution
Assay type: cell-based
Conditions: broth dilution, inoculum 5×10^5 CFU/mL, 18 hours at 35° C.; strain ATCC 6301
metric: MIC Streptococcus pneumoniae (ATCC 6301)

CC(C)=CCCC(C)=CCOc1ccc(C2OCC3OC(OC4C(CO)OC(Oc5ccc(CC6NC(=O)C(C(C)c7ccccc7)NC(=O)CNC(=O)C(CO)NC(=O)C(C(O)C7CNC(=N)N7C7OC(CO)C(O)C(O)C7O)NC(=O)C(C(O)C7CNC(=N)N7)NC6=O)cc5)C(O)C4O)C(O)C(O)C3O2)cc1 (stereo not shown) on Streptococcus sp. gives MIC Streptococcus pneumoniae (ATCC 6301) = <0.06 µg/mL

CC(C)CC(=O)OC1C(O)C(OC2C(CO)OC(Oc3ccc(CC4NC(=O)C(C(C)c5ccccc5)NC(=O)CNC(=O)C(CO)NC(=O)C(C(O)C5CNC(=N)N5C5OC(CO)C(O)C(O)C5O)NC(=O)C(C(O)C5CNC(=N)N5)NC4=O)cc3)C(O)C2O)OC2COC3(OC21)C1CC2CC(C1)CC3C2 (stereo not shown) on Streptococcus sp. gives MIC Streptococcus pneumoniae (ATCC 6301) = 0.12 µg/mL

CC(c1ccccc1)C1NC(=O)CNC(=O)C(CO)NC(=O)C(CC2CNC(=N)N2C2OC(CO)C(O)C(O)C2O)NC(=O)C(CC2CNC(=N)N2)NC(=O)C(Cc2ccc(OC3OC(CO)C(OC4OC(CO)C(OCc5ccc(OCc6ccccc6)cc5)C(O)C4O)C(O)C3O)cc2)NC1=O (stereo not shown) [Example 246a] on Streptococcus sp. gives MIC Streptococcus pneumoniae (ATCC 6301) = 0.25 µg/mL

CC(C)=CCCC(C)=CCCC(C)=CCOc1cccc(C2OCC3OC(OC4C(CO)OC(Oc5ccc(CC6NC(=O)C(C(C)c7ccccc7)NC(=O)CNC(=O)C(CO)NC(=O)C(C(O)C7CNC(=N)N7C7OC(CO)C(O)C(O)C7O)NC(=O)C(C(O)C7CNC(=N)N7)NC6=O)cc5)C(O)C4O)C(O)C(O)C3O2)c1 (stereo not shown) on Streptococcus sp. gives MIC Streptococcus pneumoniae (ATCC 6301) = 0.12 µg/mL
